# maps each entry to its TGI
- Test system: HOP-92 NSCLC
- Method summary: NCI tumour cell line growth inhibition, 48 h

Solved entries (count: 3):
{"Molecule": "C/C(=N/N)c1sc(-c2nc(C)c(/C(C)=N\\N)s2)nc1C", "Result": "> 100 µM"}
{"Molecule": "COc1cc2c(cc1OC)[C@H]1C(COC(=O)Nc3ccccc3)CN1CC2 (stereo partly specified)", "Result": "> 100 µM"}
{"Molecule": "CNC(=O)NCCN1N=C(C)/C(=C\\c2ccccc2)CC1=O", "Result": "> 100 µM"}

Prompt: Consider the molecule C=C1C(O)C2CC(C)(C)C(=O)C2=C(CC(C)C)C12CC2 (stereo unspecified) and give its recorded TGI.
Response: > 100 µM

Prompt: Consider the molecule CC(=O)OCC1OC(n2c(O)c(N=NC(N)=S)c3ccc([N+](=O)[O-])cc32)C(OC(C)=O)C1OC(C)=O (stereo unspecified) and give its recorded TGI.
Response: > 100 µM

Prompt: Consider the molecule `CCOC(=O)c1csc(-c2cn(C)c3c2C(=O)C(OC)=CC3=O)n1` and give its recorded TGI.
Response: > 100 µM

Prompt: Consider the molecule `CCOC(=O)CCn1cnc(N)n1` and give its recorded TGI.
Response: > 100 µM

Prompt: Consider the molecule `N#CCCN(CCC#N)c1ccc(/C=C(/NC(=O)Nc2ccccc2Cl)NC(=O)c2cc([N+](=O)[O-])ccc2Cl)cc1` and give its recorded TGI.
Response: > 100 µM

Prompt: Consider the molecule O=C(O)CCC(NC(=O)c1ccc(CNc2nc3cc(C(F)(F)F)ccc3nc2C(=O)O)cc1)C(=O)O (stereo unspecified) and give its recorded TGI.
Response: > 100 µM

Prompt: Consider the molecule Cc1ccc(NC(=O)CCC(=O)C2Cc3ccccc3C2=O)cc1C (stereo unspecified) and give its recorded TGI.
Response: > 100 µM

Prompt: Consider the molecule C=CCC1C(=O)CC2(C)C(CC=C)C(=O)CC12C (stereo unspecified) and give its recorded TGI.
Response: > 100 µM

---

- Test system: NCI-H23 lung
- Method summary: NCI tumour cell line growth inhibition, 48 h
# maps each entry to its TGI

{"Compound": "CC[C@]1(Cc2ccc(OC)c(OC)c2)C=[N+]([O-])O[C@H](OCc2ccccc2)[C@@H]1OC(C)=O", "Target under test": "NCI-H23 lung", "TGI": "> 100 µM"}
{"Compound": "CCC(C(=O)[C@@H](C)[C@@H](O)[C@H](C)[C@@H]1O[C@@H]([C@@H](CC)C(=O)ONC(=O)c2ccccc2)CC[C@@H]1C)[C@H]1O[C@]2(C=CC(=O)[C@]3(CC[C@@](C)([C@H]4CC[C@](O)(CC)[C@H](C)O4)O3)O2)[C@H](C)C[C@@H]1C (some centres not stated)", "Target under test": "NCI-H23 lung", "TGI": "2.08 µM"}
{"Compound": "COc1cc([C@@H]2c3cc4c(cc3[C@@H](NC(=O)NO)[C@H]3COC(=O)[C@H]23)OCO4)cc(OC)c1O", "Target under test": "NCI-H23 lung", "TGI": "> 100 µM"}
{"Compound": "O=C1NC(N2CCCCC2)=N/C1=C\\c1ccco1", "Target under test": "NCI-H23 lung", "TGI": "> 100 µM"}
{"Compound": "COc1cc(/C=N/n2c(C)n[nH]c2=O)cc(OC)c1OC", "Target under test": "NCI-H23 lung", "TGI": "> 100 µM"}
{"Compound": "O=C(NCc1ccccc1)C1C(=O)C(=O)N(Cc2ccccc2)C1=O (configuration not stated)", "Target under test": "NCI-H23 lung", "TGI": "> 100 µM"}
{"Compound": "Cc1ccc(C2C3Cc4ccccc4C3=NN2c2ccc(S(=O)(=O)NC(=O)Nc3ccccc3)cc2)cc1 (configuration not stated)", "Target under test": "NCI-H23 lung", "TGI": "31.9 µM"}
{"Compound": "C=CCN1C(=O)CS/C1=N\\NC(=O)CSc1nc2ccccc2c(=O)n1CC", "Target under test": "NCI-H23 lung", "TGI": "> 100 µM"}

Prompt: Consider the compound COC(=O)C1=COC2OC3CC1C2C(C)O3 (configuration not stated) and give its recorded TGI.
Response: > 100 µM

---

- System: NCI-H226 lung
- Method summary: NCI tumour cell line growth inhibition, 48 h
Measurement type: TGI

Solved entries (count: 2):
{"Compound": "CNC(=O)NCCN1N=C(C)/C(=C\\c2ccccc2)CC1=O", "Measurement type": "TGI", "Result": "> 100 µM"}
{"Compound": "CC(=O)N1N=C(c2ccc3ccccc3c2O)CC1c1ccc(N(C)C)cc1 (centres undefined)", "Measurement type": "TGI", "Result": "> 100 µM"}

Prompt: Report value: TGI, system: NCI-H226 lung, compound: `COc1cccc(-c2nn(-c3ccccc3)cc2-c2ccnc(NCCCNS(=O)(=O)c3ccc(C(F)(F)F)cc3)c2)c1`
Response: > 100 µM

Prompt: Report value: TGI, system: NCI-H226 lung, compound: Cc1cc(C)c(C(=O)C(C)C(c2ccccc2)c2ccc(Cl)cc2)c(C)c1 (centres undefined)
Response: > 100 µM

---

# maps each entry to its TGI
- Test system: UACC-62 melanoma
- Method summary: NCI tumour cell line growth inhibition, 48 h
Answer in µM, number only, no unit symbol.

Solved entries (count: 2):
{"Compound": "CC(C)(C)NC(=S)N/N=C/c1ccccn1", "TGI [µM]": 37.3}
{"Compound": "COc1cc(-c2ccccc2)cn2c1nc1ccccc12", "TGI [µM]": 43.9}

Next compound, please.
Prompt: Consider the compound CCOP(=O)(OCC)C(NC(c1ccccc1)c1ccccc1)c1ccc(C(C)C)cc1 (centres undefined) and give its recorded TGI.
Response: 22.9

---

# maps each entry to its TGI
- Test system: HL-60(TB) leukemia
- Method summary: NCI tumour cell line growth inhibition, 48 h

Solved entries (count: 4):
{"Compound": "C/C=C1/C(=Cc2[nH]c(C=c3[nH]/c(=C/C4=NC(=O)C(CC)=C4C)c(C)c3CCC(=O)O)c(CCC(=O)O)c2C)NC(=O)C1C (centres undefined)", "Target under test": "HL-60(TB) leukemia", "Result": "> 50 µM"}
{"Compound": "CC(=O)c1ccc(Oc2c3ccccc3nc3occc23)cc1", "Target under test": "HL-60(TB) leukemia", "Result": "> 100 µM"}
{"Compound": "CCN1C/C(=C\\c2ccc(Cl)cc2)c2[nH]c(=O)c(C#N)c(-c3ccc(Cl)cc3)c2C1", "Target under test": "HL-60(TB) leukemia", "Result": "> 100 µM"}
{"Compound": "CC(=N/NC(N)=S)/C(C)=N/NC(N)=S", "Target under test": "HL-60(TB) leukemia", "Result": "> 100 µM"}

Prompt: Consider the compound `CCOC(=O)c1cc(C(=O)c2cc(OC)c(OC)c(OC)c2)n2ccc(-c3cc[n+](CC(=O)c4cc(OC)c(OC)c(OC)c4)cc3)cc12` and give its recorded TGI.
Response: 5.75 µM

Prompt: Consider the compound Cc1ccc2c(c1)C(O)(c1ccccc1)CCS2 (centres undefined) and give its recorded TGI.
Response: 89.6 µM

Prompt: Consider the compound `COC(=O)[C@@H]1[C@H]2CC[C@]3(C)[C@@H](OC(C)=O)CC[C@H]3[C@@H]2CC[C@H]1C(C)=O` and give its recorded TGI.
Response: > 100 µM

Prompt: Consider the compound `O=C(O)CCSC(=O)Nc1ccccc1` and give its recorded TGI.
Response: > 100 µM

Prompt: Consider the compound `CC(=N\O)/C(C)=N/O.CC(=N\O)/C(C)=N/O.[Fe].[NH2-].c1c[nH]cn1` and give its recorded TGI.
Response: > 100 µM

---

- Test system: RXF 393 renal
- Method summary: NCI tumour cell line growth inhibition, 48 h
# maps each entry to its TGI

Solved entries (count: 5):
{"Compound": "COC(=O)[C@@H]1[C@H]2CC[C@]3(C)[C@@H](OC(C)=O)CC[C@H]3[C@@H]2CC[C@H]1C(C)=O", "TGI": "> 100 µM"}
{"Compound": "Nn1c(CCCCCCCCc2n[nH]c(=S)n2N)n[nH]c1=S", "TGI": "> 100 µM"}
{"Compound": "Oc1ccc(/C=N/NC(=S)Nc2cccnc2)nc1", "TGI": "> 61.2 µM"}
{"Compound": "CCC(=C(c1ccc(OCCN2CCCC2)cc1)c1ccc(OCCN2CCCC2)cc1)c1ccc(Cl)cc1", "TGI": "1.04 µM"}
{"Compound": "O=C(O)c1cc(Cl)cc(Cc2cc(Cl)cc(C(=O)O)c2O)c1O", "TGI": "> 100 µM"}

Prompt: Consider the compound `CC(=O)[CH-]C(=O)c1ccccc1.CC(=O)[CH-]C(=O)c1ccccc1.CC(=O)[CH-]C(=O)c1ccccc1.[Br-].[Zr+4]` and give its recorded TGI.
Response: > 100 µM

Prompt: Consider the compound COc1cc(C(=O)OC2CC34CCNC35CC(OC5(OC)C2O)c2cc3c(cc24)OCO3)ccc1O (stereo not drawn) and give its recorded TGI.
Response: > 100 µM

Prompt: Consider the compound COc1cccc(/C=C/C(=O)N2CC(CCl)c3c2cc(N)c2ccccc32)c1 (stereo not drawn) and give its recorded TGI.
Response: 0.00342 µM
